test_system: Acetylcholinesterase (Torpedo californica, UniProt P04058)
Sequence (P04058 whole entry): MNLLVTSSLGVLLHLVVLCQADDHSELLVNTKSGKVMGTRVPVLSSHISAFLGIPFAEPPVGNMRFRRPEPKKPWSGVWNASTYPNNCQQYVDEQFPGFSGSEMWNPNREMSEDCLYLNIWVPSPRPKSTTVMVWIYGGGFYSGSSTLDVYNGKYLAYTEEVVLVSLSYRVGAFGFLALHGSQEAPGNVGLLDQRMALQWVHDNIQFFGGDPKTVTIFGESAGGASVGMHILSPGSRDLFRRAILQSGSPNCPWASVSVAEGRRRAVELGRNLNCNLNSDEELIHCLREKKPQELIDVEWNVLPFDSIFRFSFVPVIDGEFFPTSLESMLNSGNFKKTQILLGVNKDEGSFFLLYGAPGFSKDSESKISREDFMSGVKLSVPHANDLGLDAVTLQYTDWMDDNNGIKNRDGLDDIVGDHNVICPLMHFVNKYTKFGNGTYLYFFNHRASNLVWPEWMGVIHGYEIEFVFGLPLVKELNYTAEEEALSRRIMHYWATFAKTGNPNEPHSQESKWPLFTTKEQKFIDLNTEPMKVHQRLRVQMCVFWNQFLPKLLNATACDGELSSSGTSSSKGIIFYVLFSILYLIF
test_description: Inhibition of Torpedo californica […] AChE using acetylthiocholine/DTNB as substrate preincubated for 10 mins followed by substrate addition measured every 30 secs for 30 mins by Ellmans method
Design: species or system Tetronarce californica
This listing pairs molecules with measured IC50.
Return type: number; implicit unit µM.

**Q:** With Acetylcholinesterase (Torpedo californica, UniProt P04058) as the test system, provide measured IC50 for this molecule: CN(C)C(=O)Oc1cccc([N+](C)(C)C)c1 [NEOSTIGMINE]
**A:** 0.0046

Continuing:
**Q:** With Acetylcholinesterase (Torpedo californica, UniProt P04058) as the test system, provide measured IC50 for this molecule: "Cc1cccc(Nc2ccccc2C(=O)NCCCCCCNc2c3c(nc4ccccc24)CCCC3)c1C"
**A:** 0.00224

**Q:** With Acetylcholinesterase (Torpedo californica, UniProt P04058) as the test system, provide measured IC50 for this molecule: "Cc1cccc(Nc2ccccc2C(=O)NCC(=O)NCCCCNc2c3c(nc4cc(Cl)ccc24)CCCC3)c1C"
**A:** 0.156

**Q:** With Acetylcholinesterase (Torpedo californica, UniProt P04058) as the test system, provide measured IC50 for this molecule: "Cc1cccc(Nc2ccccc2C(=O)NCCCCCC(=O)NCCCCCCCNc2c3c(nc4ccccc24)CCCC3)c1C"
**A:** 0.0036

**Q:** With Acetylcholinesterase (Torpedo californica, UniProt P04058) as the test system, provide measured IC50 for this molecule: "Cc1cccc(Nc2ccccc2C(=O)NCCCCCCCCCCNc2c3c(nc4cc(Cl)ccc24)CCCC3)c1C"
**A:** 0.000776
